target: T1, Human VEGF 165 (human, UniProt P15692-4 27-191); assay: BLI, VEGF 165 on probe; sample aged 4 days at 37 °C
T1 construct: Loaded on the BLI probe as the ligand; also called BLI ligand Human VEGF 165 (Avi tag, R&D Systems AVI-293-050); not shown: Avi tag
T1 sequence (P15692 other isoform, or with tags, fused parts or gaps limits assumed): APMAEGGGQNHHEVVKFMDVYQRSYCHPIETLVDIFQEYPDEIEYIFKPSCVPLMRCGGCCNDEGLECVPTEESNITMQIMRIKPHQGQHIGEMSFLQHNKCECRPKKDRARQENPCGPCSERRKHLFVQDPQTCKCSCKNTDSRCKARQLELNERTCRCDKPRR
pKd: −log10 of the molar value.
Assign y to entries whose pKd meets or exceeds 9; assign n to the rest.

binder	category
Conjugate 23 (anti-VEGF VHH SEQ ID NO: 91 with aH linker SEQ ID NO: 21 on hyaluronic acid, intermediate 1-11) (VHH, C-terminal Cys of the peptide linker bound by its thiol to the maleimide of the organic linker MP2H on hyaluronic acid (830 kDa), Multivalent peptide-hyaluronic acid conjugate (MVP); peptide valency 33; Method 1 intermediate; also called BI VHH anti-VEGF MVP) VHH: DVQLVESGGGLVQPGGSLRLSCAASGRTFSSYSMGWFRQAPGKEREFVVAISKGGYKYDAVSLEGRFTISRDNAKNTVYLQINSLRPEDTAVYYCASSRAYGSSRLRLADTYEYWGQGTLVTVSS	n
Conjugate 22 (anti-VEGF VHH SEQ ID NO: 91 with aH linker SEQ ID NO: 21 on hyaluronic acid, intermediate 1-10) (VHH, C-terminal Cys of the peptide linker bound by its thiol to the maleimide of the organic linker MP2H on hyaluronic acid (830 kDa), Multivalent peptide-hyaluronic acid conjugate (MVP); peptide valency 18; Method 1 intermediate; also called BI VHH anti-VEGF MVP) VHH: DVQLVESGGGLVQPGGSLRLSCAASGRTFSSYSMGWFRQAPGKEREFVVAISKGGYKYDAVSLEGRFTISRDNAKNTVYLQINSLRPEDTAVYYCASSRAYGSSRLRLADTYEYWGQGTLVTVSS	n
Conjugate 19 (anti-VEGF VHH SEQ ID NO: 91 on hyaluronic acid, intermediate 2-6) (VHH, peptide bound through the organic linker MP2H to hyaluronic acid (830 kDa); site of attachment not stated, Multivalent peptide-hyaluronic acid conjugate (MVP); peptide valency 108; Method 2 intermediate; also called BI VHH anti-VEGF MVP) VHH: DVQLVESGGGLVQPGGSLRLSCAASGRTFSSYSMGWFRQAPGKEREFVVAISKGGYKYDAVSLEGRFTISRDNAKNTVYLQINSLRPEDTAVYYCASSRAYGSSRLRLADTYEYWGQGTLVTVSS	y

Here's the next entry for you.
q: Decide: is the reported value of pKd for Conjugate 21 (anti-VEGF VHH SEQ ID NO: 91 with aH linker SEQ ID NO: 21 on hyaluronic acid, intermediate 1-9) (VHH, C-terminal Cys of the peptide linker bound by its thiol to the maleimide of the organic linker MP2H on hyaluronic acid (830 kDa), Multivalent peptide-hyaluronic acid conjugate (MVP); peptide valency 51; Method 1 intermediate; also called BI VHH anti-VEGF MVP) VHH: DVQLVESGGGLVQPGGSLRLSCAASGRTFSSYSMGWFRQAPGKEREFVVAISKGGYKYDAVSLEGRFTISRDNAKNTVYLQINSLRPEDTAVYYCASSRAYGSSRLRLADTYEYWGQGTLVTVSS equal to or greater than 9?
a: n
